# ASSAYED_SYSTEM: Human recombinant MMP-1 (Homo sapiens)
# Construct: made in house; host or cells: MMP-1-transfected HT-1080 cells (spent media)
# Sequence (P03956 100-469): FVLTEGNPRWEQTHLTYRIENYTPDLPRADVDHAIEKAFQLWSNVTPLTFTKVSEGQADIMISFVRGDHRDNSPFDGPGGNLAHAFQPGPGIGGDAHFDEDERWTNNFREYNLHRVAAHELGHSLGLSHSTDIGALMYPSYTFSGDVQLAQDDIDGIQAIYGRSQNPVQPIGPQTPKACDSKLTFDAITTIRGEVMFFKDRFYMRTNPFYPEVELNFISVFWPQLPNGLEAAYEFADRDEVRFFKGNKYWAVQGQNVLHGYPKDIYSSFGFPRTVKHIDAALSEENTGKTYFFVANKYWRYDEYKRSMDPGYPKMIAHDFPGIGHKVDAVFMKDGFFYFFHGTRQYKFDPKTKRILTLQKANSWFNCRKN
# PROCEDURE_SUMMARY: In vitro MMP inhibition analysis (fluorogenic peptide substrate cleavage), Ki
# Assay type: biochemical
# STATED_CONDITIONS: Table 2
Kindly supply the reported pKi values for the records listed here.
Numbers only, as −log10 of the molar value.

O=C(NO)C1(S(=O)(=O)c2ccc(-c3ccc(CCC(F)(C(F)(F)F)C(F)(F)F)cn3)cc2)CCOCC1 : 5.13

Now examine the next entry.
What measured pKi goes with "O=C(NO)C1(S(=O)(=O)c2ccc(-c3ccc(C(F)(F)F)cn3)cc2)CCOCC1" ?
6.59

---

For each entry below, report its Ki value.
# ASSAYED_SYSTEM: Human recombinant MMP-2 (Homo sapiens, UniProt P08253)
# Construct: made in house; host or cells: MMP-2-transfected p2AHT2 cells
# Sequence (P08253 110-660): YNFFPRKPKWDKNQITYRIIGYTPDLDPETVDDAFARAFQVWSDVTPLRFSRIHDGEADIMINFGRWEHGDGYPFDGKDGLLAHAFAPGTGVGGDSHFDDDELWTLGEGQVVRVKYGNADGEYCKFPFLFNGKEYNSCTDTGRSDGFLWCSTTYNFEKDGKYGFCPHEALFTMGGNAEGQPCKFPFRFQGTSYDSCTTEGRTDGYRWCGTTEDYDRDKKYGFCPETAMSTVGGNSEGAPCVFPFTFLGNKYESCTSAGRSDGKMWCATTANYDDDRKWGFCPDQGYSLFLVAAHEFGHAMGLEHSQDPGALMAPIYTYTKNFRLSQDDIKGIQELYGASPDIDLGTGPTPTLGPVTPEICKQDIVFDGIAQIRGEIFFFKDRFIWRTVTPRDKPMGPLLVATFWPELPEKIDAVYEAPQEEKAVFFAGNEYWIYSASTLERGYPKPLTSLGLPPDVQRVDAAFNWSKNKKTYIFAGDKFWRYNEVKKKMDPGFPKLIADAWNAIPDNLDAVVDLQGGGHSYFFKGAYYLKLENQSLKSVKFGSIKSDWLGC
# PROCEDURE_SUMMARY: In vitro MMP inhibition analysis (fluorogenic peptide substrate cleavage), Ki
# Format: biochemical
# STATED_CONDITIONS: Table 2
Numbers only, in nM.

COCCOC1CCC(C(=O)NO)(S(=O)(=O)c2ccc(-c3cnc(CCCC(F)(F)F)cn3)cc2)CC1 (stereo not shown) [Example 210] : 1.01

Please look at the items below and tell me Ki for each one, in order.
1. O=C1c2ccccc2C(=O)N1CCCOc1cccc(-c2ccc(S(=O)(=O)C3(C(=O)NO)CCOCC3)cc2)c1 [Example 196]
2. O=C(NO)C1(S(=O)(=O)c2ccc(-c3ccccc3CO)cc2)CCOCC1 [Example 197]
3. O=C(NO)C1(S(=O)(=O)c2ccc(-c3ncccn3)cc2)CCOCC1 [Example 121]
4. O=C(NO)C1(S(=O)(=O)c2ccc(-c3ccc(OCC(F)(F)C(F)F)c(C(F)(F)F)c3)cc2)CCOCC1 [Example 85]
5. O=C(NO)C1(S(=O)(=O)c2ccc(-c3ccc(-c4ccncc4)cc3)cc2)CCOCC1 [Example 141]

[947, 6200, 46.8, 33.4, 0.041]

For the 4 compounds below, give their Ki values.
1. CC[C@@H](C)NC(=O)c1ccc(-c2ccc(S(=O)(=O)C3(C(=O)NO)CCOCC3)cc2)nc1 [Example 207]
2. CCc1cnc(-c2ccc(S(=O)(=O)C3(C(=O)NO)CCOCC3)cc2)nc1 [Example 122]
3. O=C(NO)C1(S(=O)(=O)c2ccc(-c3cnc(OCCC4CCCC4)cn3)cc2)CCOCC1 [Example 180]
4. O=C(NO)C1(S(=O)(=O)c2ccc(-c3cnc(CCCC(F)(F)F)cn3)cc2)CCN(C2CC2)CC1 [Example 218]

1. 4.99
2. 5.67
3. 0.295
4. 1.93

---

# ASSAYED_SYSTEM: Human recombinant MMP-14 (Homo sapiens, UniProt P50281)
# Construct: The catalytic domain enzyme was expressed in E. coli inclusion bodies, solubilized in urea; made in house
# PROCEDURE_SUMMARY: In vitro MMP inhibition analysis (fluorogenic peptide substrate cleavage), Ki
# Format: biochemical
# STATED_CONDITIONS: Table 2
Hi there, I'd appreciate the recorded Ki for every entry that follows.

Give Ki for all molecules that follow.
1. CCCCNC(=O)c1ccc(-c2ccc(S(=O)(=O)C3(C(=O)NO)CCOCC3)cc2)nc1
2. CCc1csc(Nc2ccc(-c3ccc(S(=O)(=O)C4(C(=O)NO)CCOCC4)cc3)cc2)n1
3. CCCCOc1ccc(-c2ccc(S(=O)(=O)C3(C(=O)NO)CCOCC3)cc2)cc1
4. COC(C)CCOc1ccc(-c2ccc(S(=O)(=O)C3(C(=O)NO)CCOCC3)cc2)cc1C(F)(F)F (centres unmarked)
5. O=C(NO)C1(S(=O)(=O)c2ccc(-c3ccccc3CO)cc2)CCOCC1

1: 7.92 µM; 2: 6.23 µM; 3: 0.174 µM; 4: > 10 µM; 5: > 10 µM

The following molecules each have a reported value; give each one's Ki.
1. CCc1cnc(-c2ccc(S(=O)(=O)C3(C(=O)NO)CCOCC3)cc2)nc1
2. COC(=O)c1ccc2cc(-c3ccc(S(=O)(=O)C4(C(=O)NO)CCOCC4)cc3)ccc2c1
3. COCCN1CCC(C(=O)NO)(S(=O)(=O)c2ccc(-c3ccc(OCCN4CCCC4)cc3)cc2)CC1

1: 0.315 µM; 2: 0.623 µM; 3: 2.28 µM

---

# ASSAYED_SYSTEM: Human recombinant MMP-9 (Homo sapiens, UniProt P14780)
# Construct: made in house; host or cells: MMP-9-transfected HT1080 cells (spent media)
# Sequence (P14780 107-707 limits assumed): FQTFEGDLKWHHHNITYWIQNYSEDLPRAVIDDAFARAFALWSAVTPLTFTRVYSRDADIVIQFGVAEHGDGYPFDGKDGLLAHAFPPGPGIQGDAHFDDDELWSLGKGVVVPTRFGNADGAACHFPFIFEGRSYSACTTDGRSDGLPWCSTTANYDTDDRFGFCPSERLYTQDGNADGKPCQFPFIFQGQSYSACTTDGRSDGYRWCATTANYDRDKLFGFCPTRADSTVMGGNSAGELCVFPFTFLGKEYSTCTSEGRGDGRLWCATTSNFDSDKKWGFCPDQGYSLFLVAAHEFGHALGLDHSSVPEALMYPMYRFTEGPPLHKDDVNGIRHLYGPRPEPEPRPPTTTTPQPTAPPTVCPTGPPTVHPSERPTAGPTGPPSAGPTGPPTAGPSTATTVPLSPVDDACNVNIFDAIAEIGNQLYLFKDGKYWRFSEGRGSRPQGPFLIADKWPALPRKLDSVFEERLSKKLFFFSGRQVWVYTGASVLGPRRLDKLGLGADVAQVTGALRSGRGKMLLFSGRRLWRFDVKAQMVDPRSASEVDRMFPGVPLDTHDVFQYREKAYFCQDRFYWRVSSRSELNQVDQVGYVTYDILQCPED
# PROCEDURE_SUMMARY: In vitro MMP inhibition analysis (fluorogenic peptide substrate cleavage), Ki
# Format: biochemical
# STATED_CONDITIONS: Table 2
Labelling field: enter t if recorded Ki is less than 2 nM. Enter f if it equals or exceeds that cut-off.

Use these answered entries as a reference point.
CCCCc1cnc(-c2ccc(S(=O)(=O)C3(C(=O)NO)CCN(CCOC)CC3)cc2)cn1 : t
CCCCCc1ccc(-c2ccc(S(=O)(=O)C3(C(=O)NO)CCOCC3)cc2)c(F)c1 : f

Does the reported Ki of "CC(C)CCOc1ccc(-c2ccc(S(=O)(=O)C3(C(=O)NO)CCOCC3)cc2)cc1C(F)(F)F" stay below 2 nM?
f

Field: below-cutoff. Rule: recorded Ki strictly less than 2 nM. Subject: "O=C(NO)C1(S(=O)(=O)c2ccc(-c3ccc(CCCC(F)(F)F)cn3)cc2)CC=CC1"
t

I'd appreciate it if you could check whether "CCN1CCC(C(=O)NO)(S(=O)(=O)c2ccc(-c3noc(-c4ccc(C(F)(F)F)cc4)n3)cc2)CC1" has Ki smaller than 2 nM.
f

Confirm or reject: Ki of "CCOCCOc1ccc(-c2ccc(S(=O)(=O)C3(C(=O)NO)CCN(CCOC)CC3)cc2)cc1" lies strictly below 2 nM
f

For this compound, is Ki lower than 2 nM? "COc1ccc(-c2ccc(S(=O)(=O)C3(C(=O)NO)CCOCC3)cc2)cc1F"
t

I'd appreciate it if you could check whether "CCc1cnc(-c2ccc(S(=O)(=O)C3(C(=O)NO)CCOCC3)cc2)nc1" has Ki smaller than 2 nM.
f

Please check: Ki for "O=C(NO)C1(S(=O)(=O)c2ccc(-c3ccc(OCC(F)(F)C(F)(F)F)c(C(F)(F)F)c3)cc2)CCOCC1" , strictly under 2 nM or not?
f

Input "CCCCOc1ccc(-c2ccc(S(=O)(=O)C3(C(=O)NO)CCOCC3)cc2)cc1" ; condition: Ki strictly below 2 nM. Does it hold?
t

Please check: Ki for "CCCCc1ccc(-c2ccc(S(=O)(=O)C3(C(=O)NO)CCN(CC)CC3)cc2)cn1" , strictly under 2 nM or not?
f

Here's an entry: "CCc1csc(Nc2ccc(-c3ccc(S(=O)(=O)C4(C(=O)NO)CCOCC4)cc3)cc2)n1" . Is its Ki below 2 nM?
f

Is the reported Ki for "O=C(NO)C1(S(=O)(=O)c2ccc(-c3ccc(-c4ccccc4)cc3)cc2)CCN(C2CC2)CC1" strictly below 2 nM?
t

Answer whether the compound "CC(C)(C)NC(=O)c1ccc(-c2ccc(S(=O)(=O)C3(C(=O)NO)CCOCC3)cc2)nc1" has Ki strictly less than 2 nM
f

Please check: Ki for COCCOC1CCC(C(=O)NO)(S(=O)(=O)c2ccc(-c3ccc(CCCC(F)(F)F)cn3)cc2)CC1 (stereo not shown) , strictly under 2 nM or not?
t

Report whether reported Ki is lower than 2 nM (strictly) for "CCN1CCC(C(=O)NO)(S(=O)(=O)c2ccc(-c3cnc(CCC(F)(F)F)cn3)cc2)CC1"
f

---

# ASSAYED_SYSTEM: Human recombinant MMP-1 (Homo sapiens)
# Construct: made in house; host or cells: MMP-1-transfected HT-1080 cells (spent media)
# PROCEDURE_SUMMARY: In vitro MMP inhibition analysis (fluorogenic peptide substrate cleavage), Ki
# Format: biochemical
# STATED_CONDITIONS: Table 1
# Procedure: Several compounds and salts were analyzed in an in vitro assay to determine their ability to inhibit the MMP cleavage of peptide substrates. Inhibition constant (Ki) were calculated from the assayed compound-MMP interactions. […] The assays from which the Ki determinations were made were performed as follows. […] In the absence of MMP inhibitory activity, substrate (I) was cleaved at the Gly-Leu bond resulting in an increase of relative fluorescence. […]
Could you please report measured Ki for the items listed next?

O=C(NO)C1(S(=O)(=O)c2ccc(-c3ccc(CCC(F)(F)C(F)(F)F)cn3)cc2)CCOCC1 [Example 36] : 4.72 µM

Give Ki for each of the items listed below.
1. CCN1CCC(C(=O)NO)(S(=O)(=O)c2ccc(-c3cnc(CCC(C)(F)F)cn3)cc2)CC1 [Example 64]
2. COCCC(C(=O)NO)S(=O)(=O)c1ccc(-c2ccc(CCCC(F)(F)F)cc2)cc1 (stereo not shown) [Example 47]
3. CCN1CCC(C(=O)NO)(S(=O)(=O)c2ccc(-c3ccc(CCCC(F)(F)F)cn3)cc2)CC1 [Example 53]
4. CCN1CCC(C(=O)NO)(S(=O)(=O)c2ccc(-c3ccc(CCC(F)(F)C(F)(F)F)cn3)cc2)CC1 [Example 52]

1: > 10 µM; 2: > 10 µM; 3: > 10 µM; 4: > 10 µM

Give Ki for each of the items listed below.
1. COCCN1CCC(C(=O)NO)(S(=O)(=O)c2ccc(-c3ccc(CCC(F)(F)C(F)(F)F)cc3)cc2)CC1 [Example 46]
2. O=C(NO)C1(S(=O)(=O)c2ccc(-c3ccc(CCC(F)(F)C(F)(F)F)cc3)cc2)CCOCC1 [Example 41]

1. > 10 µM
2. 5.11 µM
